# targetUnderTest: chicken gizzard smooth muscle myosin subfragment-1 chemically crosslinked to cardiac or skeletal actin (Gallus gallus)
observationType: IC50 (nM)
Respond with the bare value in nM.

>  <molecule>
CC(C)(C)OC(=O)NCc1ncccc1CNC(=O)c1cc(F)c(-c2ccccn2)nc1NCCc1cccc(F)c1

>  <unitOfMeasurement>
nM

>  <IC50>
3660

$$$$

Determine its reported IC50: C[C@@H](N)CNC(=O)c1cc(F)c(-c2cn[nH]c2)nc1NCCc1cccc(F)c1
443

Determine its reported IC50: O=Cc1ccc(-c2ccc(C(=O)NCc3cccnc3)c(NCCc3cccc(F)c3)n2)s1
52

Determine its reported IC50: N#Cc1ccccc1-c1ccc(C(=O)NCc2cncc(CN)c2)c(NCCc2cccc(F)c2)n1
323

Determine its reported IC50: CC(=O)c1ccc(-c2ccc(C(=O)NCc3cccnc3)c(NCCc3cccc(F)c3)n2)s1
178

Determine its reported IC50: N#Cc1ccccc1-c1ccc(C(=O)NC[C@H]2CCCCN2C(=O)[C@@H](N)CCCN)c(NCCc2cccc(F)c2)n1
48

Determine its reported IC50: N#Cc1ccccc1-c1ccc(C(=O)NC(CCN)C(N)=O)c(NCCc2cccc(F)c2)n1 (stereo not drawn)
1910

Determine its reported IC50: N#Cc1ccccc1-c1ccc(C(=O)NC[C@@H](CN)NC(=O)CO)c(NCCc2cccc(F)c2)n1
10600

Determine its reported IC50: NC(=O)CNC(=O)c1ccc(-c2ccc(CO)s2)nc1NCCc1cccc(F)c1
496

----------
# targetUnderTest: chicken gizzard smooth muscle myosin subfragment-1 chemically crosslinked to cardiac or skeletal actin (Gallus gallus, UniProt P10587)
# Sequence (P02607 2-151): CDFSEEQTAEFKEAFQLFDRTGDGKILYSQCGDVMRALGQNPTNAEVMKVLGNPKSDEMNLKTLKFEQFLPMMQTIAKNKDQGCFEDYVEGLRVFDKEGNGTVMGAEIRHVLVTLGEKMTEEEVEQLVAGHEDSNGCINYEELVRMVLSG
# Sequence (P10587 84-789): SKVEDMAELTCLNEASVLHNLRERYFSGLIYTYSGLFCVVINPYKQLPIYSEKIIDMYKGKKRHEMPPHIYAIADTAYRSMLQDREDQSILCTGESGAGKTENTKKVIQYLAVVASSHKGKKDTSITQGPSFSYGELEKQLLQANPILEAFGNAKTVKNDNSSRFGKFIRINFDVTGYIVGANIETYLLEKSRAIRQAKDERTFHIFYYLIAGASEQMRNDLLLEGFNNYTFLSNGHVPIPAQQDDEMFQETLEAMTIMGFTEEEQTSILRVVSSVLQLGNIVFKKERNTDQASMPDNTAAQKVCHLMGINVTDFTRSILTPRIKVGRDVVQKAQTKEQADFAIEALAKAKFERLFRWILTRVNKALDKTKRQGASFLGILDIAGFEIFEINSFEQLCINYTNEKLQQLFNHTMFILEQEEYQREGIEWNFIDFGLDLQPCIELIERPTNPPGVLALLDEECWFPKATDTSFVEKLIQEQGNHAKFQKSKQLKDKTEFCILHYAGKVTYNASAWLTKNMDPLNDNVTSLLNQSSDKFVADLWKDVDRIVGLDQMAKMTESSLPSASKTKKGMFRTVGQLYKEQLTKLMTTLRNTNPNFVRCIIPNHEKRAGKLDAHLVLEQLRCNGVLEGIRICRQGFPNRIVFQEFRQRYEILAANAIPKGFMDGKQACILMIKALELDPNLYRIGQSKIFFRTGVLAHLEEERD
// reported IC50 per item

Solved cases (5 shown):
>  <compound>
N#Cc1ccccc1-c1ccc(C(=O)NC[C@@H]2CCCCN2C(=O)CN)c(NCCc2cccc(F)c2)n1

>  <IC50>
74 nM

$$$$
>  <compound>
CN(C)C(n1cc(-c2ccc(C(=O)NC[C@H]3CCC(=O)N3CCCN)c(NCCc3cccc(F)c3)n2)cn1)=[N+](C)C

>  <IC50>
2130 nM

$$$$
>  <compound>
Cn1cc(-c2nc(NCCc3cccc(F)c3)c(C(=O)NC[C@H]3CCN3C(=O)C(C)(C)O)cc2F)cn1

>  <IC50>
141 nM

$$$$
>  <compound>
N#Cc1ccccc1-c1nc(NCCc2cccc(F)c2)c(C(=O)NC[C@H]2CCCN2C(=O)CCCN)cc1F

>  <IC50>
38 nM

$$$$
>  <compound>
N[C@@H](CO)C(=O)N1CCCC1CNC(=O)c1cc(F)c(-c2cc[nH]n2)nc1NCCc1cccc(F)c1 (stereo partly drawn)

>  <IC50>
269 nM

$$$$

Determine its reported IC50: COC(=O)CNC(=O)c1ccc(-c2ccccc2C#N)nc1NCCc1cccc(F)c1
101 nM

Determine its reported IC50: COCCNC(=O)c1ccc(-c2ccccc2C#N)nc1NCCc1cccc(F)c1
238 nM

Determine its reported IC50: N#Cc1ccccc1-c1ccc(C(=O)NCC2CCN(C(=O)CCCN)CC2)c(NCCc2cccc(F)c2)n1
6010 nM

Determine its reported IC50: CCOC(=O)CCNC(=O)c1ccc(-c2ccccc2C#N)nc1NCCc1cccc(F)c1
4790 nM

Determine its reported IC50: O=C(NC[C@H]1CCNC1)c1ccc(-c2ccccc2)nc1NCCc1ccccn1
62600 nM

Determine its reported IC50: C[C@H](CNC(=O)c1cc(F)c(-c2cnn(C)c2)nc1NCCc1cccc(F)c1)NC(=O)[C@H](C)N
131 nM

Determine its reported IC50: N#Cc1ccccc1-c1ccc(C(=O)NCc2cccnc2)c(NCCc2cccc(F)c2)n1
24 nM

Determine its reported IC50: NCc1cc(C(=O)NCc2cccnc2)c(NCCc2cccc(F)c2)nc1-c1ccccc1
8900 nM

Determine its reported IC50: Cn1ccc(CNC(=O)c2ccc(-c3ccccc3C#N)nc2NCCc2cccc(F)c2)n1
32 nM
